Listed here: items and their measured CC50.
Assay: Cytotoxicity against human MT4 cells by MTT assay
Type: cell-based
Residues, ends and D or L forms follow the SMILES beside them. *: point of attachment. Cam = NC(=O)C*
quantity-name: CC50

[[record]]
molecule = "COC[C@@H](c1ccc(C(F)(F)F)cc1)N1CCN(C2(C)CCN(C(=O)c3c(C)ncnc3C)CC2)C[C@@H]1C [VICRIVIROC]"
result = "> 5 µM"

[[record]]
molecule = "c1cc(CN2CCCNCCNCCCNCC2)ccc1CN1CCCNCCNCCCNCC1 [PLERIXAFOR]"
result = "> 50 µM"

[[record]]
molecule = "Cc1cn([C@H]2C[C@H](N=[N+]=[N-])[C@@H](CO)O2)c(=O)[nH]c1=O [ZIDOVUDINE]"
result = "> 100 µM"

[[record]]
molecule = "CC[C@H](C)[C@H](NC(=O)[C@H](CCCNC(=N)N)NC(=O)[C@H](CCC(N)=O)NC(=O)[C@H](Cc1cnc[nH]1)NC(=O)[C@@H](NC(=O)[C@H](CO)NC(=O)[C@H](Cc1ccc(O)cc1)NC(=O)[C@H](CC(C)C)NC(=O)[C@@H](NC(=O)[C@H](C)NC(=O)[C@@H](NC(=O)[C@@H](NC(C)=O)[C@@H](C)O)[C@@H](C)CC)C(C)C)C(C)C)C(=O)N[C@@H](CC(=O)O)C(=O)N[C@H](C(=O)N[C@@H](CCCCN)C(=O)NCC(=O)N[C@@H](CSCC(N)=O)C(N)=O)C(C)C (Ac-TIAVLYSVHQRIDVKGC(Cam)-NH2)"
result = "> 50 µM"


---

Test: Cytotoxicity against human MT4 cells by MTT assay in presence of 10 uM of chloroquine
Type: cell-based
Residues, ends and D or L forms follow the SMILES beside them. *: point of attachment. Cam = NC(=O)C*
quantity-name: CC50

[[record]]
compound = "Cc1cn([C@H]2C[C@H](N=[N+]=[N-])[C@@H](CO)O2)c(=O)[nH]c1=O [ZIDOVUDINE]"
result = "31 µM"

[[record]]
compound = "c1cc(CN2CCCNCCNCCCNCC2)ccc1CN1CCCNCCNCCCNCC1 [PLERIXAFOR]"
result = "> 50 µM"

[[record]]
compound = "CC[C@H](C)[C@H](NC(=O)[C@H](CCCNC(=N)N)NC(=O)[C@H](CCC(N)=O)NC(=O)[C@H](Cc1cnc[nH]1)NC(=O)[C@@H](NC(=O)[C@H](CO)NC(=O)[C@H](Cc1ccc(O)cc1)NC(=O)[C@H](CC(C)C)NC(=O)[C@@H](NC(=O)[C@H](C)NC(=O)[C@@H](NC(=O)[C@@H](NC(C)=O)[C@@H](C)O)[C@@H](C)CC)C(C)C)C(C)C)C(=O)N[C@@H](CC(=O)O)C(=O)N[C@H](C(=O)N[C@@H](CCCCN)C(=O)NCC(=O)N[C@@H](CSCC(N)=O)C(N)=O)C(C)C (Ac-TIAVLYSVHQRIDVKGC(Cam)-NH2)"
result = "> 50 µM"


---

Test system: Human immunodeficiency virus 1
Test: Antiviral activity against macrophage-tropic HIV1 NL(AD8) infected in human PM1 expressing CCR5 cells assessed as inhibition of virus-induced cytopathogenicity after 5 days by MTT assay in presence of 5 uM of chloroquine
Assay type: functional, organism-based
Settings: Human immunodeficiency virus 1, NL(AD8), PM1/CCR5, 120 h
pEC50: −log10 of the molar value. Residues, ends and D or L forms follow the SMILES beside them. *: point of attachment. Cam = NC(=O)C*
quantity-name: pEC50

[[record]]
compound = "Cc1cn([C@H]2C[C@H](N=[N+]=[N-])[C@@H](CO)O2)c(=O)[nH]c1=O"
quantity_name = "pEC50"
comparison_symbol = "="
numeric_result = 6.29

[[record]]
compound = "CC[C@H](C)[C@H](NC(=O)[C@H](CCCNC(=N)N)NC(=O)[C@H](CCC(N)=O)NC(=O)[C@H](Cc1cnc[nH]1)NC(=O)[C@@H](NC(=O)[C@H](CO)NC(=O)[C@H](Cc1ccc(O)cc1)NC(=O)[C@H](CC(C)C)NC(=O)[C@@H](NC(=O)[C@H](C)NC(=O)[C@@H](NC(=O)[C@@H](NC(C)=O)[C@@H](C)O)[C@@H](C)CC)C(C)C)C(C)C)C(=O)N[C@@H](CC(=O)O)C(=O)N[C@H](C(=O)N[C@@H](CCCCN)C(=O)NCC(=O)N[C@@H](CSCC(N)=O)C(N)=O)C(C)C (Ac-TIAVLYSVHQRIDVKGC(Cam)-NH2)"
quantity_name = "pEC50"
comparison_symbol = "<"
numeric_result = 4.30

[[record]]
compound = "c1cc(CN2CCCNCCNCCCNCC2)ccc1CN1CCCNCCNCCCNCC1"
quantity_name = "pEC50"
comparison_symbol = "<"
numeric_result = 4.30

[[record]]
compound = "COC[C@@H](c1ccc(C(F)(F)F)cc1)N1CCN(C2(C)CCN(C(=O)c3c(C)ncnc3C)CC2)C[C@@H]1C"
quantity_name = "pEC50"
comparison_symbol = "="
numeric_result = 8.31

